// log10 of IC50 lookup, one value per entry
Test system: human neutrophilic leukocyctes
Method: Activity for inhibiting the generation of O2- in human neutrophilic leukocytes (FMLP-stimulated, ferricytochrome C method)
Assay type: cell-based
Experimental Conditions: Leukocyte, O₂⁻ generation stimulated with 3×10⁻⁷ M FMLP at 37°C, cytochalasin B 5 µg/ml, pre-incubated with test compound 20 minutes, 4 minutes reduction, absorbance 550 nm, read-out: IC₅₀
Would you kindly interpret these values as log10 of IC50 expressed in µM?

Worked examples, 2 compounds total:
{"Compound": "CCOc1ccc(-c2nc(-c3cccc(C(=N)NO)n3)cs2)cc1OCC", "Test System": "human neutrophilic leukocyctes", "log10 of IC50": -0.64}
{"Compound": "CCOc1ccc(-c2nc(-c3ccc(NC(N)=S)cc3)cs2)cc1OCC", "Test System": "human neutrophilic leukocyctes", "log10 of IC50": -1.52}

The compound CCOc1ccc(-c2nc(-c3cccc(C(O)CN4CCN(C)CC4)n3)cs2)cc1OCC (centres unmarked) showed log10 of IC50 equal to -0.35

Lab note: measured log10 of IC50 of `CCOc1ccc(-c2nc(-c3cnccn3)cs2)cc1OCC` was -1.14

So, `CCOc1ccc(-c2nc(-c3ccc(C(=N)NO)cc3)cs2)cc1OCC` ? Its log10 of IC50 was -1.89
